Measured PBM binding z-score of individual entries
test system: PPARg:RXRa (NR concentration 180 nM, RXRa partner concentration 90 nM); test: PBM binding z-score (relative to random genomic background probes); higher = stronger binding; sequences stand for … in GC…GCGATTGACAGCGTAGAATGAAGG
Give your answer as a number; write no unit.

# annotated cases, reported PBM binding z-score shown
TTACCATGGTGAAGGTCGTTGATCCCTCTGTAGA :: 1.06
CCGACTGGGGCAAGGTTACCAAAACGCACAGCCA :: 2.78
TTAGCAAGGTGAAGGTCGTTGATCCCTCTGTAGA :: 1.94
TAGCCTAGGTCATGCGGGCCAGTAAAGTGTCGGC :: 2.07
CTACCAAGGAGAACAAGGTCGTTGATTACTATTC :: 0.183

PBM binding z-score recorded for this sequence, "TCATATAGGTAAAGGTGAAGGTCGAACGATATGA" , is 4.01

PBM binding z-score recorded for this sequence, "CATACAGTGTCAGCTAGGCCAGAGTAGGGACGGC" , is 0.467

PBM binding z-score recorded for this sequence, "CCTACTGGGCAACGAAAGGTCATTGATTCAGTGA" , is 2.1

PBM binding z-score recorded for this sequence, "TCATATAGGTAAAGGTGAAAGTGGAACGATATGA" , is 4.42

PBM binding z-score recorded for this sequence, "GCAGACAGGTGAAACGCAGGGAACTCAGGGTGGC" , is 0.488

PBM binding z-score recorded for this sequence, "GCGAGTTGGTCAGTAAAAGGTCACACACCGGTCG" , is 3

PBM binding z-score recorded for this sequence, "CTACCAAGATGAACAAGGTCGTTGATTACTATTC" , is 0.228

PBM binding z-score recorded for this sequence, "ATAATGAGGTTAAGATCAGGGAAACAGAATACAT" , is 3.01

PBM binding z-score recorded for this sequence, "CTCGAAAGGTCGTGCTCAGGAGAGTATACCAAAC" , is 2.62

PBM binding z-score recorded for this sequence, "CCTAGCAGGCCAGGGTCACTCATGCATTTCGCTT" , is 0.947

PBM binding z-score recorded for this sequence, "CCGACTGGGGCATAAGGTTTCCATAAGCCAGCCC" , is 1.11

PBM binding z-score recorded for this sequence, "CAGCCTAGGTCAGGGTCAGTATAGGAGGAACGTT" , is 2.37

PBM binding z-score recorded for this sequence, "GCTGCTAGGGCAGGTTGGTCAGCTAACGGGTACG" , is -0.438

PBM binding z-score recorded for this sequence, "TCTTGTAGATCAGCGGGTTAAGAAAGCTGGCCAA" , is -0.329

PBM binding z-score recorded for this sequence, "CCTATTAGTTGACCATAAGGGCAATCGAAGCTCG" , is 0.434

PBM binding z-score recorded for this sequence, "TCATATAGGTAAAACGTGAAAGTCGGTGTGGTAA" , is 2.92

PBM binding z-score recorded for this sequence, "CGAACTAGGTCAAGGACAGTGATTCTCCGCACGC" , is 7.19

---

tested on: PPARg DBDmut:RXRa IVT, anti-PPARg (DBD mutation: PPARg1 K132A/R137A, NR concentration 270 nM, RXRa partner concentration 90 nM); experiment: PBM binding z-score (relative to random genomic background probes); higher = stronger binding; sequences stand for … in GC…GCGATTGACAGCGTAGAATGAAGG
Class definitions on PBM binding z-score: 0: < -0.1; 1: ≥ -0.1 and < 0.7; 2: ≥ 0.7

Some solved entries appear below for comparison.
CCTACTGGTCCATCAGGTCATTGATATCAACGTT :: 1
TTACCAAGTTGAGCTGAGGTCGTTGATCCAACTC :: 0
GATACAGGGTCACGGCCAGAGTACGCGTATTGAT :: 2

// query Place this sequence in its band: "ACTATTAGTTGACTTAGGGTAACCGATACGACGC"
// result 2

// query Place this sequence in its band: "ACAGACAGGTAAGTGAAGGTAACTCAGCTGGACG"
// result 2

// query Place this sequence in its band: "CTACCAAGGTGAACAAGGTCGTTAATTACTATTC"
// result 2

// query Place this sequence in its band: "GGAACGAGGGCATTCCAGTTGATAGCATGGCGAT"
// result 1

// query Place this sequence in its band: "TAGCCTAGGTCAGATCGGGCCTGTATACGCTATA"
// result 0

// query Place this sequence in its band: "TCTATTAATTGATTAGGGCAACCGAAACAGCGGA"
// result 2

// query Place this sequence in its band: "AGAATGAGGTTACCATAGATCAGGGAAACGCTTG"
// result 1

// query Place this sequence in its band: "CAGCCTAGGTCACGGCCAGTATAGGAGGAACGTT"
// result 1

// query Place this sequence in its band: "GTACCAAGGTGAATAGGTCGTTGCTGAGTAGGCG"
// result 0

---

test system: RARa homodimer (NR concentration 270 nM); assay: PBM binding z-score (relative to random genomic background probes); higher = stronger binding; sequences stand for … in GC…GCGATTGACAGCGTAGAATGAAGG
PBM binding z-score below 0.2 gives no (0); PBM binding z-score at or above it gives yes (1).

Some solved entries appear below for comparison.
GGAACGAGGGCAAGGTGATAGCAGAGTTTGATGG :: yes (1)
CCGAGTGGGGCAAGGTTACCATAACGCACAGCCA :: no (0)
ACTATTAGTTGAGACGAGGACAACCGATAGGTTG :: yes (1)
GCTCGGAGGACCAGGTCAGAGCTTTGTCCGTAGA :: no (0)
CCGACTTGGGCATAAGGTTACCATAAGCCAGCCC :: no (0)
CGTCCAAGCTCATAGGAGGTCAGTGAAGACAGAT :: yes (1)
CCTTCTGGGCCACGAAAGGTCATTGATTCAGTGA :: yes (1)
ACTAGCAGGCCAAGTTTGGGTCACTCTAACAAAG :: no (0)

Next:
// query // inclusive: PBM binding z-score at least 0.2? input: "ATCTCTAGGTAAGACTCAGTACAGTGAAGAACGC"
// result yes (1)

---

test system: RARg:RXRa (NR concentration 270 nM, RXRa partner concentration 90 nM); assay: PBM binding z-score (relative to random genomic background probes); higher = stronger binding; sequences stand for … in GC…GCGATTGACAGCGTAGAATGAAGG
Measured PBM binding z-score of individual entries
Give your answer as a number; write no unit.

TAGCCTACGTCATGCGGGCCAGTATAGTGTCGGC :: -0.452
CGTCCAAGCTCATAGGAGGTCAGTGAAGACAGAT :: 1.69
CGAACTAGGTCATCCAGGACTGTGAATACATTGA :: 4.02
CCGACTGGGGCATATGGTTACCATAAGCCAGCCC :: -0.00585
TCTCGGAGGACCCGAAGGTCAGAGCTTTCCAGAG :: 2.16

PBM binding z-score recorded for this sequence, "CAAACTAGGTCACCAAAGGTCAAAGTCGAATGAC" , is 7.87

PBM binding z-score recorded for this sequence, "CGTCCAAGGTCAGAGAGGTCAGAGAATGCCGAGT" , is 6.29

PBM binding z-score recorded for this sequence, "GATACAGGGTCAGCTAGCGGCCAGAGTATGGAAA" , is 6.02

---

test system: PPARg:RXRa 30nM:10nM, anti-RXR (NR concentration 30 nM, RXRa partner concentration 10 nM); assay: PBM binding z-score (relative to random genomic background probes); higher = stronger binding; sequences stand for … in GC…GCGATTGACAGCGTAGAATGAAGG
PBM binding z-score below 1 gives not satisfied; PBM binding z-score at or above it gives satisfied.

Some solved entries appear below for comparison.
CCTCGGAGTACAACAGGAGGTCAGAGCTGCCAGA :: not satisfied
CCTGCTAGCTCATGGTCAGCTAATCTACAGTATG :: not satisfied
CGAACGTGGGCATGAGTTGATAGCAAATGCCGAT :: not satisfied
CAAACTAGGTCATTGACAGGACAGTGAATAGTAA :: satisfied
CCTAGCAGGGCAGGGTCACTCAAGCATTTCGCTT :: not satisfied

Next:
// query // inclusive: PBM binding z-score at least 1? input: "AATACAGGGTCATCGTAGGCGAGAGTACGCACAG"
// result satisfied

---

system: PPARg:RXRa DBDmut IVT, anti-RXR (DBD mutation: RXRa K156A/R161A, NR concentration 270 nM, RXRa partner concentration 90 nM); assay: PBM binding z-score (relative to random genomic background probes); higher = stronger binding; sequences stand for … in GC…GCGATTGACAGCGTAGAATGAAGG
PBM binding z-score below 1 gives class 0; PBM binding z-score at or above it gives class 1.

Some solved entries appear below for comparison.
ATTAGCAGGCCAAGTTTGGGTCACTCAAACAAAG :: class 0
AGAATGAGGTTAAGATCAGGCAAACAGAATACAT :: class 1
CCTACTGGGCCAAAGGTAATTGATTCCAATGCTC :: class 1
TCTTGTCGATCAAAGGTTAAGAAAGCCGAAGCCT :: class 1
CCGGCTAGGTCAATGGTCAGCTAAAGCAGCTCGC :: class 1
GCTAGTTGGTCAGTAACAGGTCACACACCGGTCG :: class 0
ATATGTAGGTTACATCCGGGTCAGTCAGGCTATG :: class 1

// query // inclusive: PBM binding z-score at least 1? input: "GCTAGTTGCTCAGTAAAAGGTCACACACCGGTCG"
// result class 0
